# target-entity: Mcl-1 protein (Homo sapiens)
# Sequence (Q07820 whole entry): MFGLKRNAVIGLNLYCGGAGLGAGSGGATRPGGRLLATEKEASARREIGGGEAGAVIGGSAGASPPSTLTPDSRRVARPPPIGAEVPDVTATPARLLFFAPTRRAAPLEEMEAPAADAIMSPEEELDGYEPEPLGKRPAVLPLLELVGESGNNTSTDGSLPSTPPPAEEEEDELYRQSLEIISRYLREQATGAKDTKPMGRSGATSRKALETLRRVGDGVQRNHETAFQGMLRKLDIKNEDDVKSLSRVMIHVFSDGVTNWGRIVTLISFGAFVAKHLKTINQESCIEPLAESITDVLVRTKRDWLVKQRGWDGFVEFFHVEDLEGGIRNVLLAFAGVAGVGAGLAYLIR
# test-summary: Inhibition of Mcl-1 by the fluorescence polarisation technique (Method 1 or Method 2)
# Type: binding
# setup-conditions: fluorescence polarisation, Fluorescein labelled ligand; Method 1 (not underlined) or Method 2 (underlined); read-out: IC50 (μM) Mcl-1 FP
# Description: The relative binding potency of each compound was determined via Fluorescence Polarisation (FP). An 11 point serial dilution of each compound was prepared in DMSO and 2 μl transferred into flat bottomed, low binding, 384-well plate (final DMSO concentration 5%). […]
readout-kind: IC50
Remember to put the unit after the number in your answer.

- compound: "CCc1sc2ncnc(N[C@H](Cc3ccncc3)C(=O)O)c2c1-c1cccc2ccccc12 [Example 193]"
  IC50: "36.5 µM"

Problem: Given the compound CC#Cc1sc2ncnc(NC(Cc3ccccc3OCc3ccnn3C(C)(C)C)C(=O)O)c2c1-c1ccc(OCCN2CCN(C)CC2)c(Cl)c1C (stereo not drawn) [Example 40] , what is its reported IC50?
Result: 0.006 µM

Problem: Given the compound CCc1sc2ncnc(NC(Cc3cccnc3)C(=O)O)c2c1-c1cccc2ccccc12 (stereo not drawn) [Example 162] , what is its reported IC50?
Result: 0.597 µM

Problem: Given the compound Cc1c(-c2c(-c3ccsc3)sc3ncnc(NC(Cc4ccccn4)C(=O)O)c23)ccc(OCCN2CCN(C)CC2)c1Cl (stereo not drawn) [Example 29] , what is its reported IC50?
Result: 0.063 µM

Problem: Given the compound CC#Cc1sc2ncnc(N[C@H](Cc3ccccc3OCc3ccnc(-c4ccccc4OC)n3)C(=O)O)c2c1-c1ccc(OCCN(C)C)c(Cl)c1C [Example 49] , what is its reported IC50?
Result: 0.003 µM

Problem: Given the compound O=C(O)C(Cc1ccccn1)Nc1ncnc2sc(C(F)F)c(-c3cccc4ccccc34)c12 (stereo not drawn) [Example 250] , what is its reported IC50?
Result: 0.617 µM

Problem: Given the compound CCc1sc2ncnc(N[C@H](Cc3ccccc3)C(=O)O)c2c1-c1cccc(O)c1C [Example 67] , what is its reported IC50?
Result: 2.08 µM

Problem: Given the compound CC#Cc1sc2ncnc(NC(Cc3ccccc3OCc3ccnc(CCOC)n3)C(=O)O)c2c1-c1ccc(OCCN2CCN(C)CC2)c(Cl)c1C (stereo not drawn) [Example 41] , what is its reported IC50?
Result: 0.006 µM

Problem: Given the compound CCc1sc2ncnc(NC(Cc3ccccc3)C(=O)O)c2c1-c1ccc(OCCO)c(Cl)c1C (stereo not drawn) [Example 56] , what is its reported IC50?
Result: 0.019 µM

Problem: Given the compound CCc1sc2ncnc(N[C@H](Cc3cn(Cc4ccccc4)cn3)C(=O)O)c2c1-c1cccc2ccccc12 [Example 195] , what is its reported IC50?
Result: 14.2 µM

Problem: Given the compound CCc1sc2ncnc(NC(Cc3ccccc3)C(=O)O)c2c1-c1cccc(OC)c1C (stereo not drawn) [Example 75] , what is its reported IC50?
Result: 0.28 µM

Problem: Given the compound CCOC(=O)C(Cc1ccccc1OCc1ccnc(-c2ccccc2OCCOC)n1)Nc1ncnc2sc(-c3ccc(F)cc3)c(-c3ccc(OCCN(C)C)c(Cl)c3C)c12 (stereo not drawn) [Example 260] , what is its reported IC50?
Result: 1.98 µM

Problem: Given the compound C=Cc1sc2ncnc(NC(Cc3ccccc3)C(=O)O)c2c1-c1cccc2ccccc12 (stereo not drawn) [Example 102] , what is its reported IC50?
Result: 0.073 µM

Problem: Given the compound CC#Cc1sc2ncnc(NC(Cc3ccccc3OCc3ccnc(-c4ccccc4OC)n3)C(=O)OCC)c2c1-c1ccc(OCCN2CCN(C)CC2)c(Cl)c1C (stereo not drawn) [Example 258] , what is its reported IC50?
Result: 1.07 µM

Problem: Given the compound COC(=O)c1oc(-c2sc3ncnc(NC(Cc4ccccc4OC)C(=O)O)c3c2-c2ccc(OCCN3CCN(C)CC3)c(Cl)c2C)cc1C (stereo not drawn) [Example 65] , what is its reported IC50?
Result: 0.345 µM

Problem: Given the compound CCc1sc2ncnc(NC(Cc3ccccc3[N+](=O)[O-])C(=O)O)c2c1-c1cccc(Cl)c1C (stereo not drawn) [Example 136] , what is its reported IC50?
Result: 0.146 µM

Problem: Given the compound CC#Cc1sc2ncnc(NC(Cc3ccccc3OC)C(=O)O)c2c1-c1ccc(OCCN2CCN(C)CC2)c(Cl)c1C (stereo not drawn) [Example 39] , what is its reported IC50?
Result: 0.025 µM

Problem: Given the compound CCCCn1nccc1COc1ccccc1CC(Nc1ncnc2sc(-c3ccc(F)o3)c(-c3ccc(OCCN4CCN(C)CC4)c(Cl)c3C)c12)C(=O)O (stereo not drawn) [Example 24] , what is its reported IC50?
Result: 0.008 µM

The reported numbers originate from patent US10457687B2.
